These data points were gathered from paper PMC5681660.

# TARGET_OR_TEST_SYSTEM: human NTCP (Homo sapiens, UniProt Q14973)
# EXPERIMENT_NOTES: Screening taurocholate uptake assay (96-well, [14C]taurocholate, 10 µM drug)
# TEST_CONTEXT: ranking score beside the functional and binding assay B-scores of the screen
Where a name gives a salt, the structure may show the parent alone.
A collection of compounds and their measured Ranking score
Form field (numeric): enter value without unit.

COMPOUND	MEASURE_NAME	RESULT_NUMBER
CCN(CC)C(=O)N1CCN(C)CC1 [Diethylcarbamazine citrate]	Ranking score	718.594
CCN(CC)C(C)CN1c2ccccc2Sc2ccccc21 (centres unmarked) [Ethopropazine hydrochloride]	Ranking score	687.443
NCCc1ccc(O)c(O)c1 [Dopamine hydrochloride]	Ranking score	802.566

Reported Ranking score, compound Nc1nc(N)c2nc(-c3ccccc3)c(N)nc2n1 [Triamterene] : ____
725.193

###

# TARGET_OR_TEST_SYSTEM: human NTCP (Homo sapiens)
# Sequence (Q14973 1-349): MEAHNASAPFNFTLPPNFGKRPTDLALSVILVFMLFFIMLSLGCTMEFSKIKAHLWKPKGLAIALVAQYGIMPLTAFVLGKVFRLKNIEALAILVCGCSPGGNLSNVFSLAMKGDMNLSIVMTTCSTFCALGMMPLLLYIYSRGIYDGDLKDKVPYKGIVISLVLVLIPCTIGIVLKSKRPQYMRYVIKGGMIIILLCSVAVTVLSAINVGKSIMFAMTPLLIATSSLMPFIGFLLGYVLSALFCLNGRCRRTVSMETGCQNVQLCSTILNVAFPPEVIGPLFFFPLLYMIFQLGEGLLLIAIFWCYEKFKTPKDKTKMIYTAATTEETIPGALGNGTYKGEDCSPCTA
# EXPERIMENT_NOTES: Screening fluorescent competitive Myrcludex B-FITC binding assay (96-well, 10 µM drug)
# TEST_CONTEXT: Prestwick library screen, 10 µM drug; B-score of Myrcludex B-FITC binding
Structures can show the parent of a compound that is named as a salt.
A collection of compounds and their measured B-score binding assay

Known B-score binding assay results, listed for orientation:
COMPOUND	TARGET_OR_TEST_SYSTEM	B-score binding assay
NCC(CC(=O)O)c1ccc(Cl)cc1 (racemic) [Baclofen (R,S)]	human NTCP (Homo sapiens)	0.531
CCN(CC)CCOC(=O)C1(c2ccc([N+](=O)[O-])cc2)CCCC1.Cl [Nitrocaramiphen hydrochloride]	human NTCP (Homo sapiens)	0.18
Cc1cc2c(s1)Nc1ccccc1N=C2N1CCN(C)CC1	human NTCP (Homo sapiens)	2.253
Cl.O=C(OCC(O)CO)c1ccccc1Nc1ccnc2cc(Cl)ccc12 (stereo not shown) [Glafenine hydrochloride]	human NTCP (Homo sapiens)	3.077
CCCCOc1ccc(OCCCN2CCOCC2)cc1 [Pramoxine hydrochloride]	human NTCP (Homo sapiens)	0.619
Cc1c(OCC(F)(F)F)ccnc1C[S+]([O-])c1nc2ccccc2[nH]1 (stereo not shown)	human NTCP (Homo sapiens)	0.157

Reported B-score binding assay, compound COc1cc(C(=O)NC2CCCNC2)cc(OC)c1OC (stereo not shown) [Troxipide] : ____
2.726

Reported B-score binding assay, compound CN[C@@H]1[C@@H](O)[C@@H](O[C@@H]2[C@@H](O)[C@H](O[C@H]3OC(CN)=CC[C@H]3N)[C@@H](N)C[C@H]2N)OC[C@]1(C)O [Sisomicin sulfate] : ____
0.455

Reported B-score binding assay, compound Cc1ccccc1N1C(=O)c2cc(S(N)(=O)=O)c(Cl)cc2NC1C (stereo not shown) : ____
1.32
